Data credit: patent US20260207570A1

Recorded measurements of Cmax, one per entry
assay: Phase 1 multiple ascending dose (MAD) pharmacokinetics with CSF collection in healthy volunteers; format: in vivo, human; details: male, human, plasma, oral, 135 mg, 135 mg MD Day 1, n = 8; plasma total; geometric mean; read-out: Cmax
Enter your answer as a number in ng/mL; do not include the unit.

- Molecule: "CC(=O)c1ccc(CCOc2ccc(CC3SC(=O)NC3=O)cc2)nc1 (centres unmarked) [Compound M3]"
  Cmax / ng/mL: 2470

Given the molecule CC(O)c1ccc(CCOc2ccc(CC3SC(=O)NC3=O)cc2)nc1 (centres unmarked) [Leriglitazone] , what is its reported Cmax?
5430

###

assay: Phase 1 multiple ascending dose (MAD) pharmacokinetics with CSF collection in healthy volunteers; assay type: in vivo, human; settings: male, CSF and plasma (unbound), oral; human, 270 mg; unbound CSF Cmax / unbound plasma Cmax; read-out: Kpu, u based on CSF
Endpoint label: Kp
Keep it simple and answer with nothing but the number.

Given the compound CC(O)c1ccc(CCOc2ccc(CC3SC(=O)NC3=O)cc2)nc1 (stereo not shown) , what is its reported Kp?
0.54

###

test: Phase 1 single ascending dose (SAD) pharmacokinetics in healthy volunteers; format: in vivo, human; conditions: male, human, plasma, oral, 30 mg, single dose 30 mg Fasted; read-out: Cmax, Observed
Endpoint label: Cmax (ng/mL)
Enter your answer as a number in ng/mL; do not include the unit.

Given the molecule CC(O)c1ccc(CCOc2ccc(CC3SC(=O)NC3=O)cc2)nc1 (stereo not shown) , what is its reported Cmax?
1700

###

assay: Phase 1 single ascending dose (SAD) pharmacokinetics in healthy volunteers; type: in vivo, human; conditions: male, human, plasma, oral, 90 mg, SAD 90 mg fed, n = 3; geometric mean (CV %); read-out: Vz/F
Description: […]
Endpoint label: Vd/F (L)
Enter your answer as a number in L; do not include the unit.

Given the molecule CC(O)c1ccc(CCOc2ccc(CC3SC(=O)NC3=O)cc2)nc1 (stereo not shown) [Leriglitazone] , what is its reported Vd/F?
27.8

###

assay: Phase 1 multiple ascending dose (MAD) pharmacokinetics with CSF collection in healthy volunteers; assay type: in vivo, human; details: male, human, plasma, oral, 270 mg, 270 mg MD Day 1, n = 8; geometric mean (CV %); read-out: Vz/F
Endpoint label: Vd/F (L)
Enter your answer as a number in L; do not include the unit.

- Molecule: "CC(O)c1ccc(CCOc2ccc(CC3SC(=O)NC3=O)cc2)nc1 (centres unmarked) [Leriglitazone]"
  Vd/F [L]: 52.7

Now examine the next entry.
Given the molecule CC(=O)c1ccc(CCOc2ccc(CC3SC(=O)NC3=O)cc2)nc1 (centres unmarked) [Compound M3] , what is its reported Vd/F?
103

###

Recorded measurements of Tmax, one per entry
Assay: Phase 1 multiple ascending dose (MAD) pharmacokinetics with CSF collection in healthy volunteers
Type: in vivo, human
Conditions: male, human, plasma, oral, 270 mg, 270 mg MD Day 1, n = 8; Median; read-out: Tmax
Method: […] The ratio of unbound leriglitazone concentration in brain to unbound concentration in plasma (Kpu,u; Cb,u/Cp,u) was calculated dividing the unbound CSF Cmax by the unbound plasma Cmax. […]
Please append the unit to your numeric answer.

Given the compound CC(=O)c1ccc(CCOc2ccc(CC3SC(=O)NC3=O)cc2)nc1 (centres unmarked) , what is its reported Tmax?
3.5 h

Given the compound CC(O)c1ccc(CCOc2ccc(CC3SC(=O)NC3=O)cc2)nc1 (centres unmarked) , what is its reported Tmax?
3 h
